Biological target: PIK3CA (human)
Assay: Assessment of PIK3CA Kinase Activity
endpoint.name: IC50

CN1CCN(C(=O)c2ccc(NC(=O)Nc3ccc(-c4nc(N5CCOCC5)c5ccc(-c6cccnc6F)cc5n4)cc3)cc2)CC1: < 50 nM
CC(=O)Nc1ccc(NC(=O)Nc2ccc(-c3nc(N4CCOCC4)c4ccc(-c5cncnc5)cc4n3)cc2)cc1: < 50 nM
COc1ccc(-c2ccc3c(N4CCOCC4)nc(-c4ccc(NC(=O)Nc5ccc(C(=O)N(C)C)cc5)c(F)c4)nc3c2)cn1: 50 to 200 nM

Turning now to a further compound:
For record CN(C)C(=O)c1ccc(NC(=O)Nc2ccc(-c3nc(N4CCOCC4)c4ccc(-c5ccc(CO)o5)cc4n3)cc2)cc1 the listed IC50 is < 50 nM
